Origin of measurements: patent US20170283440A1

# subject of test: Human CARM1 (PRMT4) (Homo sapiens)
# Construct: Flag-CARM1-His was eluted with 200 ug/ml FLAG peptide in buffer A
# Sequence (Q86X55 other isoform, or with tags, fused parts or gaps): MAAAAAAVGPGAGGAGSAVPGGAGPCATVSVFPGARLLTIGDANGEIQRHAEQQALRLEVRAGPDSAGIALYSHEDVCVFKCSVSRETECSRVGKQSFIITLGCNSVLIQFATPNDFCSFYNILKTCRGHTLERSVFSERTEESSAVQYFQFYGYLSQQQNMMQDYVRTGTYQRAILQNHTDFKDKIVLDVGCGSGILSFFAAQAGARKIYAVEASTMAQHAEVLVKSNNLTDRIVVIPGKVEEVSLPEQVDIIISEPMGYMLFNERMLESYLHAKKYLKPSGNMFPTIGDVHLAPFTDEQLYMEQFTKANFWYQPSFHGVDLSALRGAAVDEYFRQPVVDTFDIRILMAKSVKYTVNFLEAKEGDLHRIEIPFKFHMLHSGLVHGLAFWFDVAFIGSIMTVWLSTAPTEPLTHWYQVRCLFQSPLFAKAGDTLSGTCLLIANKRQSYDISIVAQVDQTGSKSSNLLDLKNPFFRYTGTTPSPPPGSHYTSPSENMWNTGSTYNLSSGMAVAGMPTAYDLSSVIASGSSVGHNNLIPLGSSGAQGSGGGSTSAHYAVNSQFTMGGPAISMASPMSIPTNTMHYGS
# test description: CARM1 enzyme assay on peptide substrate (3H-SAM Flashplate)
# conditions: CARM1 0.25 nM, 3H-SAM 30 nM, peptide 250 nM; read-out: Biochem IC50
metric: IC50

Examples from the recorded data:
CNCC(O)COc1cc(Cl)cc(-c2cc(NC3C4COCC43)n3ncc(C(C)C)c3n2)c1 (stereo not shown) [Example 38-6] ... 100 to 1000 nM
CNCC(O)COc1cc(OC)cc(-c2cc(N[C@H]3CCOC3)n3ncc(C(C)C)c3n2)c1 (stereo partly shown) [Example 23-6] ... < 100 nM
CNCC(O)COc1cc(OC)cc(-c2cc(N3CCOCC3)nc3c(C4CC4)cnn23)c1 (stereo not shown) [Example 3-7] ... < 100 nM

Could you now consider this next compound?
Query string: Which measured IC50 belongs to CNCC(O)COc1cc(OC)cc(-c2cc(-c3cnc4[nH]ccc4c3)n3ncc(C(C)C)c3n2)c1 (stereo not shown) [Example 1-6] , tested on Human CARM1 (PRMT4) (Homo sapiens)?
Result string: < 100 nM
